molecular target: Opioid receptors; mu & kappa (Homo sapiens) (UniProt P41145+P35372); test: Selectivity for human kappa opioid receptor over human mu opioid receptor; type: protein assay
Sequence (P35372 whole entry, looked up): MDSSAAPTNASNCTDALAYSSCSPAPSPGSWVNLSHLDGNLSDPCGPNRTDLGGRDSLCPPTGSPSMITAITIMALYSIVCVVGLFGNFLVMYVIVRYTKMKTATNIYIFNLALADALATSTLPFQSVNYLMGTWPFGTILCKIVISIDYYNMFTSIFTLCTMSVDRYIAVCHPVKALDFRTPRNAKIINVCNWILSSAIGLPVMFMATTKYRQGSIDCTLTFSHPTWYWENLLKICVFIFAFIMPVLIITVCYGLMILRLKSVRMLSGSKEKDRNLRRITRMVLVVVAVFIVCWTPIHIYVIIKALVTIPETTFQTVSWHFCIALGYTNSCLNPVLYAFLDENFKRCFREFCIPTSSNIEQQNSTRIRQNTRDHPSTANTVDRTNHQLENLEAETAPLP
Sequence (P41145 whole entry, looked up): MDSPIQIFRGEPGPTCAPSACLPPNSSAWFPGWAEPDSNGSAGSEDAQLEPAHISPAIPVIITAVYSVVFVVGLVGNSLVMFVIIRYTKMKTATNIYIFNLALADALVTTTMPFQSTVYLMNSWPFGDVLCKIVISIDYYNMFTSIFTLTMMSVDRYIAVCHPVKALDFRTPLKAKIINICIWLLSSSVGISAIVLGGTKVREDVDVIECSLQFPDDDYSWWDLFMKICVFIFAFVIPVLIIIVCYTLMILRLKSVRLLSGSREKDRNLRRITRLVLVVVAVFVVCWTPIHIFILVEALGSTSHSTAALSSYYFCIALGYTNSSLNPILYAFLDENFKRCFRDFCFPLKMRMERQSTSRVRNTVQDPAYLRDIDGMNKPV
Hi, to clarify the labels: Condition met covers Ratio Ke from 100 upward, Condition not met covers anything below 100.

Prompt: For this compound, is measured Ratio Ke 100 or higher? CC1CN(CCCc2ccccc2)C2C[C@H](NC(=O)CCN3CCCCC3)CC1(c1cccc(O)c1)C2 (stereo partly drawn)
Response: Condition met

Prompt: What do you get for CC1CN(CCCc2ccccc2)C2C[C@H](NC(=O)CCN3CCc4ccccc4C3)CC1(c1cccc(O)c1)C2 (stereo partly drawn) ?
Response: Condition met

Prompt: What do you get for Cc1ccccc1CCN1CC(C)C2(c3cccc(O)c3)CC1C[C@H](NC(=O)CCN1CCc3ccccc3C1)C2 (stereo partly drawn) ?
Response: Condition met

Prompt: What do you get for CC1CN(CCCc2ccccc2)C2C[C@H](NC(=O)CCN3CCN(C)CC3)CC1(c1cccc(O)c1)C2 (stereo partly drawn) ?
Response: Condition not met

Prompt: What do you get for CC1CN(CCCc2ccccc2)C2C[C@H](NC(=O)CCN3CCc4c(O)cccc4C3)CC1(c1cccc(O)c1)C2 (stereo partly drawn) ?
Response: Condition not met

Prompt: What do you get for COc1ccc2c(c1)CCN(CCC(=O)N[C@H]1CC3CC(c4cccc(O)c4)(C1)C(C)CN3CCCc1ccccc1)C2 (stereo partly drawn) ?
Response: Condition met

Prompt: What do you get for CC1CN(CCCc2ccsc2)C2C[C@H](NC(=O)CCN3CCc4ccccc4C3)CC1(c1cccc(O)c1)C2 (stereo partly drawn) ?
Response: Condition not met

Prompt: What do you get for Cc1ccccc1CCCN1CC(C)C2(c3cccc(O)c3)CC1C[C@H](NC(=O)CCN1CCc3ccccc3C1)C2 (stereo partly drawn) ?
Response: Condition met

Prompt: What do you get for CC1CN(CCCc2ccccc2)C2C[C@H](NC(=O)CCN3CCc4ccc(O)cc4C3)CC1(c1cccc(O)c1)C2 (stereo partly drawn) ?
Response: Condition met

Prompt: What do you get for CC1CN(CCCc2ccccc2)C2C[C@H](NC(=O)CCN3CCOCC3)CC1(c1cccc(O)c1)C2 (stereo partly drawn) ?
Response: Condition met

Prompt: What do you get for CC1CN(CCCc2cccs2)C2C[C@H](NC(=O)CCN3CCc4ccccc4C3)CC1(c1cccc(O)c1)C2 (stereo partly drawn) ?
Response: Condition not met

Prompt: What do you get for CCCCCCN1CC(C)C2(c3cccc(O)c3)CC1C[C@H](NC(=O)CCN1CCc3ccccc3C1)C2 (stereo partly drawn) ?
Response: Condition met

Prompt: What do you get for CC1CN(CCCc2ccccc2)C2C[C@H](NC(=O)CCN3CCc4cc(O)ccc4C3)CC1(c1cccc(O)c1)C2 (stereo partly drawn) ?
Response: Condition not met

Prompt: What do you get for CC1CCN(CCC(=O)N[C@H]2CC3CC(c4cccc(O)c4)(C2)C(C)CN3CCCc2ccccc2)CC1 (stereo partly drawn) ?
Response: Condition met

Prompt: What do you get for COc1cc2c(cc1OC)CN(CCC(=O)N[C@H]1CC3CC(c4cccc(O)c4)(C1)C(C)CN3CCCc1ccccc1)CC2 (single isomer, unassigned; (-)) ?
Response: Condition met

Prompt: What do you get for CC1CN(CCCc2ccco2)C2C[C@H](NC(=O)CCN3CCc4ccccc4C3)CC1(c1cccc(O)c1)C2 (stereo partly drawn) ?
Response: Condition met
